- target entity: UniProt P42568
- Sequence (P42568 1-138 limits assumed): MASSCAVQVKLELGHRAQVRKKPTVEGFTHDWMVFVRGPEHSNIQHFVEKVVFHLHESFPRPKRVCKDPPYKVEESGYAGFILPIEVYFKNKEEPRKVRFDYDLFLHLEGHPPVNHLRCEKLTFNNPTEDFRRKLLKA
parameter measured: IC50 (µM)
Answer format: numeric, µM implied, no suffix.

Lookup result for O=C(/C=C/c1ccc(-n2ccnc2)cc1)N1CCN(C(=O)c2ccco2)CC1 ; measured IC50: 62
